Some compounds, each annotated with its measured cell viability.
- Tested on: NOMO1
- measurement.description: cell viability relative to DMSO control; higher = less cytotoxic
- assay.setup: HPLM + 10% dialyzed FBS; 48 h; 0.00234 µM
Please reply with the bare figure in % and do not write the unit itself.

Known results for compounds:
smi	cell viability [%]
CC(C)C[C@H](NC(=O)CNC(=O)c1cc(Cl)ccc1Cl)B(O)O	104
N[S+](=O)([O-])c1cccc2c1C(=O)c1cccc(O)c1C2=O	115
CN(C)c1nc(Cc2ccc(NC(=O)c3ccc4ccccc4c3)cc2)nc(Cl)c1CC(=O)O	116
COc1cc([C@H]2Oc3cc([C@H]4Oc5cc(O)cc(O)c5C(=O)[C@@H]4O)ccc3O[C@@H]2CO)ccc1O	122

Now for another entry.
Query: Consider the compound shown here: `C[C@]12CC[C@H]3[C@@H](C\C=C/4C[C@@H](O)CC[C@]34C)[C@@H]1CCC2=O` What is its recorded cell viability?
Result: 134

---

Reported cell viability by item:
- System: NOMO1
- measurement.description: cell viability relative to DMSO control; higher = less cytotoxic
- assay.setup: RPMI 5 mM glucose + 10% dialyzed FBS; 48 h; 0.00702 µM
Give your result as the value with the unit written after it.

smi	cell viability
Oc1cccc(-c2nc(N3CCOCC3)c3oc4ncccc4c3n2)c1	125%
C[S+](=O)([O-])c1cccc(CNc2nc(Nc3ccc4c(c3)CCC(=O)N4)ncc2C(F)(F)F)c1	114%
CCCCCCCCCC(=O)N[C@@H](Cc1c[nH]c2ccccc12)C(=O)N[C@H](CC(N)=O)C(=O)N[C@@H](CC(=O)O)C(=O)N[C@@H]1C(=O)NCC(=O)N[C@@H](CCCN)C(=O)N[C@@H](CC(=O)O)C(=O)N[C@H](C)C(=O)N[C@@H](CC(=O)O)C(=O)NCC(=O)N[C@H](CO)C(=O)N[C@@H]([C@@H](C)CC(=O)O)C(=O)N[C@@H](CC(=O)c2ccccc2N)C(=O)O[C@@H]1C	103%

Query: Look at this compound and give its reported cell viability. `CC[C@@]1(O)C(=O)OCC/2=C1/C=C3\N(CC4=CC5=CC(=CC=C5N=C34)O)C2=O`
Result: 117%

Query: # lookup: cell viability of `COc1cc([C@H]2Oc3cc([C@H]4Oc5cc(O)cc(O)c5C(=O)[C@@H]4O)ccc3O[C@@H]2CO)ccc1O`
Result: 115%

Query: Item under review: `CC(C)C[C@H](NC(=O)CNC(=O)c1cc(Cl)ccc1Cl)B(O)O` . Reported cell viability?
Result: 108%

Query: Report cell viability for `CC[C@]12\C=C/CN3CC[C@]4([C@@H](N(C)C5=CC(=C(C=C45)[C@]6(C[C@H]7C[C@H](CN(C7)CC8=C6[NH]C9=C8C=CC=C9)C(C)(F)F)C(=O)OC)OC)[C@](O)([C@@H]1OC(C)=O)C(=O)OC)[C@H]23` please.
Result: 91.6%

Query: What value of measured cell viability is listed for `O=C\1N(N\C=C1[N]2C=CN=N2)C3=NC=NC(=C3)N4CCOCC4` ?
Result: 81.5%

Query: Quick one: cell viability of `NC(=O)c1cccc2cn(-c3ccc([C@@H]4CCCNC4)cc3)nc12` ?
Result: 108%

---

- Tested on: SEM cells
- measurement.description: cell viability relative to DMSO control; higher = less cytotoxic
- assay.setup: RPMI 5 mM glucose + 10% dialyzed FBS; 48 h; 0.0632 µM
reported.metric: cell viability
Respond with the figure and its unit, in that order.

Example cases with answers are listed next.
compound	cell viability
Cc1cc(Nc2nc(N[C@@H](C)c3ccc(F)cc3)c(C#N)cc2F)n[nH]1	93.9%
COc1cc2nc(N3CCN(C(=O)C4CCCO4)CC3)nc(N)c2cc1OC (stereo not given)	134%
COC(=O)C1C2CC3c4[nH]c5cc(OC)ccc5c4CCN3CC2CC(OC(=O)c2cc(OC)c(OC)c(OC)c2)C1OC (stereo not given)	104%
CN[C@@H](C)C(=O)N[C@H]1CN(C(=O)CC(C)C)CC[C@H]2CC[C@@H](C(=O)NC(c3ccccc3)c3ccccc3)N2C1=O	106%
Cc1cnc(C(=O)O)c[n+]1[O-]	135%

Query: Any idea what cell viability was measured for `NC/1=N/C(=O)N(/C=C1F)[C@H]2CS[C@H](CO)O2` ?
Result: 126%

Query: Which cell viability is listed for `CC(/C=C/C(=O)NO)=C\[C@@H](C)C(=O)c1ccc(N(C)C)cc1` ?
Result: 106%

Query: Given the entry `COc1cc2c(Nc3ccc(Br)cc3F)ncnc2cc1OCC1CCN(C)CC1` , report its measured cell viability.
Result: 63.7%

Query: Return reported cell viability; argument: `ClC1=CC\2=C(OC3=C(C=CC=C3)\N=C2N4CCNCC4)C=C1`
Result: 117%

Query: What value of cell viability has been reported for the following compound? `Nc1cccc2c1CN([C@H]1CCC(=O)NC1=O)C2=O`
Result: 120%
